Catalogue of IC50 readings, one per entry.
Molecular target: bromodomain BRD4 (44-168), BRD4 (333-460), and BRD4 (1-477 or 44-460) (Homo sapiens)
Construct: BRD4(44-168), BRD4(333-460), BRD4(44-460), BRD4(1-477), O60885-1; fused on or other part: N-terminal BirA biotinylation motif, biotinylated; The TVMV-cleavable His6 tag is removed, except in some BRD4(44-460) runs detected with anti-His terbium cryptate
Test: Time Resolved Fluorescence Resonance Energy Transfer (TR-FRET) binding assay
Conditions: one of the FRET assays described
propertyMeasured: IC50

1. Cc1ccccc1Cn1c2ccc(C(=O)N3CC(C)OC(C)C3)cc2c2ccc(-c3c(C)noc3C)cc21 (stereo not drawn) | < 0.5 µM
2. CNC(=O)c1cc(-c2c(C)noc2C)cc2[nH]c3ccc(C(=O)N4CC(F)(F)C4)cc3c12 | < 0.5 µM
3. Cc1noc(C)c1-c1cc(C(N)=O)c2c3cc(C(=O)N4CC(F)C4)ccc3n(C(C)c3ccc(Cl)cc3)c2c1 (stereo not drawn) | < 0.05 µM
4. COc1ccccc1Cn1c2ccc(C(=O)N3CCC(F)C3)cc2c2c(C(N)=O)cc(-c3c(C)noc3C)cc21 (stereo not drawn) | < 0.05 µM
5. COc1ccccc1Cn1c2ccc(C(=O)N3CC(C)OC(C)C3)cc2c2ccc(-c3c(C)noc3C)cc21 (stereo not drawn) | < 0.5 µM
6. COC(C)(C)c1ccc2c3c(C(N)=O)cc(-c4c(C)noc4C)cc3n([C@H](c3ccccc3)C3CCOCC3)c2c1 | < 0.05 µM
7. COc1ccccc1Cn1c2ccc(C(=O)N3CC(C)OC(C)C3)cc2c2c(C(N)=O)cc(-c3c(C)noc3C)cc21 (stereo not drawn) | < 0.05 µM
8. Cc1noc(C)c1-c1cc(C(N)=O)c2c3cc(S(C)(=O)=O)ccc3n(Cc3ccccc3)c2c1 | < 0.05 µM
9. COC(=O)c1ccc2c3c(C(N)=O)cc(-c4c(C)noc4C)cc3n(Cc3ccccc3)c2c1 | < 0.05 µM
10. Cc1noc(C)c1-c1cc(C(N)=O)c2c3cc(C(=O)N4CCC(F)C4)ccc3n(Cc3cccc(F)c3)c2c1 (stereo not drawn) | < 0.05 µM
11. Cc1noc(C)c1-c1cc(C(N)=O)c2c3cc(C(=O)N4CC(F)(F)C4)ccc3n(C(C)c3ccccc3)c2c1 (single isomer, unassigned) [Example 97] | < 0.05 µM
12. Cc1nnn(C)c1-c1cc(C(N)=O)c2c3ccc(C(C)(C)O)cc3n(C(c3ccccc3)C3CCOCC3)c2c1 (single isomer, unassigned) [Example 232] | < 0.05 µM
13. Cc1noc(C)c1-c1ccc2c3cc(C(=O)N4CC(C)OC(C)C4)ccc3n(Cc3ccccc3F)c2c1 (stereo not drawn) | < 7.5 µM
14. Cc1noc(C)c1-c1cc(C(N)=O)c2c3cc(C(=O)N4CC(F)(F)C4)ccc3n(C(C)c3ccccc3)c2c1 (single isomer, unassigned) [Example 98] | < 0.05 µM
15. Cc1noc(C)c1-c1ccc2c3cc(C(=O)N4CC(C)OC(C)C4)ccc3n(Cc3ccc(Cl)cc3)c2c1 (stereo not drawn) | < 0.5 µM
16. Cc1noc(C)c1-c1cc(C(N)=O)c2c3ccc(C(C)(C)O)cc3n(C(c3ccccc3)C3(F)CCC3)c2c1 (single isomer, unassigned) [Example 221] | < 0.05 µM
17. Cc1noc(C)c1-c1ccc2c3cc(C(=O)N4C[C@@H](C)O[C@@H](C)C4)ccc3n(S(C)(=O)=O)c2c1 | < 7.5 µM
18. Cc1noc(C)c1-c1cc(C(N)=O)c2c3cc(C(=O)N4CC(C)OC(C)C4)ccc3n(Cc3ccncn3)c2c1 (stereo not drawn) | < 0.5 µM
19. Cc1noc(C)c1-c1cc(C(N)=O)c2c3cc(N4CCOC4=O)ccc3n(Cc3ccc(Cl)cc3)c2c1 | < 0.05 µM
20. CC(=O)N(C)c1ccc2c(c1)c1c(C(N)=O)cc(-c3c(C)noc3C)cc1n2Cc1ccccc1 | < 0.05 µM
21. Cc1noc(C)c1-c1cc(C(N)=O)c2c3cc(N4CCCS4(=O)=O)ccc3n(Cc3ccc(F)cc3)c2c1 | < 0.05 µM
